- assay-target: Endoplasmic reticulum aminopeptidase 2 (Homo sapiens, UniProt Q6P179)
- Sequence (Q6P179 whole entry): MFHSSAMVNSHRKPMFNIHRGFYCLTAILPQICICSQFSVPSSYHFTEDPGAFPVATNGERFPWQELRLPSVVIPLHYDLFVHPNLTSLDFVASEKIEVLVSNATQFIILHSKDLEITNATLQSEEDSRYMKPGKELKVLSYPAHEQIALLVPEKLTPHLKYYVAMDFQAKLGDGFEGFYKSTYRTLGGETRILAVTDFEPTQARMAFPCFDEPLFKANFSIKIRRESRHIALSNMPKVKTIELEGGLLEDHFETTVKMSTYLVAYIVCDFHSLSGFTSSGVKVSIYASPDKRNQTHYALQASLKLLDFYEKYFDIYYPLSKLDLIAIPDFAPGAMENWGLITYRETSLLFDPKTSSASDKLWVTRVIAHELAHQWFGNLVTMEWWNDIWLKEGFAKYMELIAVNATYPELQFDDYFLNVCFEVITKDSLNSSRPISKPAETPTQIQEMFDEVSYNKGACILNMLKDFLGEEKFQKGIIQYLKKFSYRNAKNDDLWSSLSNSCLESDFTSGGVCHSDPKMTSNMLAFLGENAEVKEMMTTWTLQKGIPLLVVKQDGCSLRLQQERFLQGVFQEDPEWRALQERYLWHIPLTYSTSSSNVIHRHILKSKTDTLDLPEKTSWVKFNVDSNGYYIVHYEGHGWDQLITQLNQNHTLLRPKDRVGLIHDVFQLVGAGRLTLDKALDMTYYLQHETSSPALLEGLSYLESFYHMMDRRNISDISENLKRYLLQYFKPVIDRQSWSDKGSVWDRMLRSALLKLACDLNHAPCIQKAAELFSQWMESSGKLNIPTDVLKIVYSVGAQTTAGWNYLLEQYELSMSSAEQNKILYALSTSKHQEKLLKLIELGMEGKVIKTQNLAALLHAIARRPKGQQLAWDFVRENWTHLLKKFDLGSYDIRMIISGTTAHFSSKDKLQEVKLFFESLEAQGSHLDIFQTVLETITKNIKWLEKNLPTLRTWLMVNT
- assay-protocol: Activation of recombinant ERAP2 (unknown origin) expressed in baculovirus infected Hi-5 insect cells at 100 uM using R-AMC as substrate preincubated for 30 mins followed by substrate addition and measured every 3 mins for 1 hr by flourescence assay relative to control
- test-context: filed as activator, time 90.0 min
measurement-type: fold change (FC)
Output spec: single numeric token, no unit.

I am curious: what fold change (FC) value has been reported for CC(C)C[C@@H](C(=O)O)N(C)C(=O)c1ccc(N(CCc2ccccc2)S(=O)(=O)c2ccc(F)cc2)cc1 ?
1.46

I am curious: what fold change (FC) value has been reported for CN(C(=O)c1ccc(N(CCc2ccccc2)S(=O)(=O)c2ccccc2)cc1)[C@@H](Cc1ccccc1)C(=O)O ?
1.76

I am curious: what fold change (FC) value has been reported for CN(C(=O)c1ccc(N(CCc2ccccc2)S(=O)(=O)c2ccc(F)cc2)cc1)[C@@H](Cc1ccccc1)C(=O)O ?
1.84

I am curious: what fold change (FC) value has been reported for CC(C)C[C@@H](C(=O)O)N(C)C(=O)c1ccc(N(CCc2ccccc2)S(=O)(=O)c2ccccc2)cc1 ?
1.43

====

- assay-target: UniProtKB Q9NZ08
- Sequence (Q9NZ08 whole entry): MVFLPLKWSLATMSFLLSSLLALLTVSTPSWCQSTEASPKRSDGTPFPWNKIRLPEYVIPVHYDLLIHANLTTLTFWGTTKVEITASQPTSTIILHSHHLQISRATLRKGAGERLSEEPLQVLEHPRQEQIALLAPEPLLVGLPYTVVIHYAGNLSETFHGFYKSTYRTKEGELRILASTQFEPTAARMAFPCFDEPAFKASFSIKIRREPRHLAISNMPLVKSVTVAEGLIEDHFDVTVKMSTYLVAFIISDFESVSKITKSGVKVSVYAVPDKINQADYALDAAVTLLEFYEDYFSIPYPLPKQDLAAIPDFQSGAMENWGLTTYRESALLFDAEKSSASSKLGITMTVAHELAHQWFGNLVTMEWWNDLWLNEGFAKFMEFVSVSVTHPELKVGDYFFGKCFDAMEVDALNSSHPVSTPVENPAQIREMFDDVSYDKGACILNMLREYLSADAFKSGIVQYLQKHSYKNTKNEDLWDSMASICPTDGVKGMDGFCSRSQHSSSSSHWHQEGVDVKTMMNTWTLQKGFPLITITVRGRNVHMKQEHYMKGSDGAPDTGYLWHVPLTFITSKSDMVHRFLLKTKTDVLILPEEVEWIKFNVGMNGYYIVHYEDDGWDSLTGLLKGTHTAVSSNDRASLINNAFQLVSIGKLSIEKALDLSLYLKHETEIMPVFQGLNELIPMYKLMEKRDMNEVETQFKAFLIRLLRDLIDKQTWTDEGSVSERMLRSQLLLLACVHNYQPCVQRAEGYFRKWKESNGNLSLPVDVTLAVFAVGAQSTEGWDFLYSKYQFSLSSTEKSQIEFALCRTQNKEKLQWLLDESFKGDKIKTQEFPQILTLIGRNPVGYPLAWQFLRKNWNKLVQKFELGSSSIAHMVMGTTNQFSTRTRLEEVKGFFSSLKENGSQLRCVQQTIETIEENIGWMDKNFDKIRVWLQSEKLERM
- assay-protocol: Inhibition of recombinant C-terminal 10-His-tagged human ERAP1 at 100 uM using L-AMC as substrate preincubated for 30 mins followed by substrate addition measured every 3 mins for 1 hr by flourescence assay relative to control
- test-context: time 90.0 min
measurement-type: inhibition

I am curious: what inhibition value has been reported for O=C(O)CN(CC(=O)N1CCN(Cc2ccccc2)C[C@@H]1Cc1c[nH]c2ccccc12)c1ccccc1 ?
< 10%

I am curious: what inhibition value has been reported for CN(C(=O)c1ccc(N(CCN2CCCC2)S(=O)(=O)c2ccc(F)cc2)cc1)[C@@H](Cc1ccccc1)C(=O)O ?
10%

I am curious: what inhibition value has been reported for CN(C(=O)c1ccc(N(CCc2ccccc2)S(=O)(=O)c2ccccc2)cc1)[C@@H](Cc1ccccc1)C(=O)O ?
< 20%

I am curious: what inhibition value has been reported for CN(C(=O)c1ccc(N(CCc2ccccc2)S(=O)(=O)c2ccc(F)cc2)cc1)[C@@H](Cc1ccccc1)C(=O)O ?
< 20%
